Biological target: human caspase-3 (Homo sapiens, UniProt P42574)
Construct: made in house; host or cells: E. coli Rosetta 2 pLysS DE3
Sequence (P42574 29-277): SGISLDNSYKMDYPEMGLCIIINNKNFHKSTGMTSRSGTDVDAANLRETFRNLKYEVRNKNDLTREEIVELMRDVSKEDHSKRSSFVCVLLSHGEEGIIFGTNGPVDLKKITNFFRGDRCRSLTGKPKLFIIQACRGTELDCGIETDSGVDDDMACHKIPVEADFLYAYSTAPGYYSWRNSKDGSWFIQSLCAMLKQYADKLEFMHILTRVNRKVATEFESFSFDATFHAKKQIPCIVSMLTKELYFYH
Assay: Fluorescent enzyme assay, Casp3 (AFC substrate AcDEVD-AFC)
Format: biochemical
pKi: −log10 of the molar value. *1 amine or outer side, *2 acyl side, *3 side chain or, on linkers, in order; H or OH if unused. Where a SMILES comes first, the peptide text is derived from it. [ ]: non-standard residue; d: D form. The star is where a group is joined. ξ: configuration not given here. X1 = Cc1ccc2c(c1)CCN([*:1])[C@@H]2C(=O)[*:2]; ξ(indoline-2-carboxyl) = O=C(O)C1Cc2ccccc2N1; ξTHIQ1CO(6-Me) = Cc1ccc2c(c1)CCNC2C(=O)O; X3 = O=C([C@@H]1Cc2ccccc2N1[*:1])[*:2]; Aad = N[C@@H](CCCC(=O)O)C(=O)O; Thr(3ξ) = CC(O)[C@H](N)C(=O)O; Tle = CC(C)(C)[C@H](N)C(=O)O; Bn = c1ccc(C*)cc1
Below, each of the compounds is paired with its reported pKi value.

# COMPOUND, pKi
data = [
    ("Cc1ccc2c(c1F)CCN(C(=O)[C@@H](NC(=O)[C@H](CCCC(=O)O)NC(=O)[C@@H]1Cc3ccccc3N1)C(C)C)C2C(=O)N[C@H](C=O)CC(=O)O (stereo partly drawn) [Compound 14]", "< 4.00"),
    ("Cc1ccc2c(c1)CCN(C(=O)[C@@H](NC(=O)[C@H](CCCC(=O)O)NC(=O)C1Cc3ccccc3N1)C(C)C)[C@@H]2C(=O)N[C@H](C=O)CC(=O)O (stereo partly drawn) [Compound 2] (H-[ξ(indoline-2-carboxyl)][Aad]V[X1]D-aldehyde)", "< 4.50"),
    ("Cc1ccc2c(c1)CCN(C(=O)CNC(=O)[C@H](CCCC(=O)O)NC(=O)[C@@H]1Cc3ccccc3N1)[C@@H]2C(=O)N[C@H](C=O)CC(=O)O [Compound 5]", 5.26),
    ("Cc1ccc2c(c1)CCN(C(=O)[C@@H](NC(=O)[C@H](CCCC(=O)O)NC(=O)[C@@H]1Cc3ccccc3N1)C(C)OCc1ccccc1)C2C(=O)N[C@H](C=O)CC(=O)O (stereo partly drawn) [Compound 6] (H-[X3][Aad][Thr(3ξ)](Bn)[ξTHIQ1CO(6-Me)]D-aldehyde)", 4.48),
    ("Cc1ccc2c(c1)CCN(C(=O)[C@@H](NC(=O)[C@H](CCCC(=O)O)NC(=O)[C@@H]1Cc3ccccc3N1)C(C)(C)C)C2C(=O)N[C@H](C=O)CC(=O)O (stereo partly drawn) [Compound 11] (H-[X3][Aad][Tle][ξTHIQ1CO(6-Me)]D-aldehyde)", "< 4.00"),
    ("Cc1ccc2c(c1)CCN(C(=O)[C@@H](NC(=O)[C@H](CCCC(=O)O)NC(=O)[C@@H]1Nc3ccc(F)cc3C1(C)C)C(C)C)[C@@H]2C(=O)N[C@H](C=O)CC(=O)O [Compound 12]", "< 4.00"),
    ("Cc1ccc2c(c1)CCN(C(=O)[C@@H](NC(=O)[C@H](CCCC(=O)O)NC(=O)C1Cc3ccccc3N1)C(C)C)[C@@H]2C(=O)N[C@H](C#N)CC(=O)O (stereo partly drawn) [Compound 1]", 6.03),
    ("Cc1ccc2c(c1)CCN(C(=O)[C@@H](NC(=O)[C@H](CCCC(=O)O)NC(=O)[C@H]1Nc3ccc(F)cc3C1(C)C)C(C)C)C2C(=O)N[C@H](C=O)CC(=O)O (stereo partly drawn) [Compound 13]", "< 4.00"),
    ("Cc1ccc2c(c1F)CCN(C(=O)[C@@H](NC(=O)[C@H](CCCC(=O)O)NC(=O)[C@H]1Nc3ccc(F)cc3C1(C)C)C(C)C)C2C(=O)N[C@H](C=O)CC(=O)O (stereo partly drawn) [Compound 15]", "< 4.00"),
]

###

Below, each of the molecules is paired with its reported Ki value.
Target: human caspase-2 (Homo sapiens, UniProt P42575)
Construct: inferred from pET23b, XhoI reverse primer without stop codon, Ni-NTA purification) (C); made in house; host or cells: E. coli BL21(DE3)
Sequence (P42575 170-452): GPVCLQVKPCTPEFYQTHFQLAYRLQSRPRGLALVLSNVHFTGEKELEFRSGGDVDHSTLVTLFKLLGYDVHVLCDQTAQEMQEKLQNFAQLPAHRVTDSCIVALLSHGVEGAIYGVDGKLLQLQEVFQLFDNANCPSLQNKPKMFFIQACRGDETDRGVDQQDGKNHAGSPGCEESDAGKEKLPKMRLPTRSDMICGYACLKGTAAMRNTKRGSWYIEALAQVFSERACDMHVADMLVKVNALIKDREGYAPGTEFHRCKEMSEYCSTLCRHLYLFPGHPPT
Experiment: Fluorescent enzyme assay, Casp2 (AFC substrate Z-VDVAD-AFC)
Format: biochemical
*1 amine or outer side, *2 acyl side, *3 side chain or, on linkers, in order; H or OH if unused. Where a SMILES comes first, the peptide text is derived from it. [ ]: non-standard residue; d: D form. ξ: configuration not given here. ξTHIQ1CO(6-Me) = Cc1ccc2c(c1)CCNC2C(=O)O; X3 = O=C([C@@H]1Cc2ccccc2N1[*:1])[*:2]; Aad = N[C@@H](CCCC(=O)O)C(=O)O; Tle = CC(C)(C)[C@H](N)C(=O)O
ENDPOINT: Ki (nM)

# MOLECULE, ENDPOINT RESULT
rows = [
    ("Cc1ccc2c(c1)CCN(C(=O)[C@@H](NC(=O)[C@H](CCCC(=O)O)NC(=O)C1Cc3ccccc3N1)C(C)C)[C@@H]2C(=O)N[C@H](C#N)CC(=O)O (some centres unmarked)", 7.59),
    ("Cc1ccc2c(c1)CCN(C(=O)[C@@H](NC(=O)[C@H](CCCC(=O)O)NC(=O)[C@@H]1Nc3ccc(F)cc3C1(C)C)C(C)C)[C@@H]2C(=O)N[C@H](C=O)CC(=O)O", 4170),
    ("Cc1ccc2c(c1F)CCN(C(=O)[C@@H](NC(=O)[C@H](CCCC(=O)O)NC(=O)[C@H]1Nc3ccc(F)cc3C1(C)C)C(C)C)C2C(=O)N[C@H](C=O)CC(=O)O (some centres unmarked)", 174),
    ("Cc1ccc2c(c1)CCN(C(=O)[C@@H](NC(=O)[C@H](CCCC(=O)O)NC(=O)[C@@H]1Cc3ccccc3N1)C(C)(C)C)C2C(=O)N[C@H](C=O)CC(=O)O (stereo partly drawn) [Compound 11] (H-[X3][Aad][Tle][ξTHIQ1CO(6-Me)]D-aldehyde)", 4170),
    ("Cc1ccc2c(c1)CCN(C(=O)[C@@H](NC(=O)[C@H](CCCC(=O)O)NC(=O)[C@H]1Nc3ccc(F)cc3C1(C)C)C(C)C)C2C(=O)N[C@H](C=O)CC(=O)O (some centres unmarked)", 646),
]

###

Target: human caspase-2 (Homo sapiens)
Construct: inferred from pET23b, XhoI reverse primer without stop codon, Ni-NTA purification) (C); made in house; host or cells: E. coli BL21(DE3)
Assay: Fluorescent enzyme assay, Casp2 (AFC substrate Z-VDVAD-AFC)
Type: biochemical
Settings: selectivity Casp2 over Casp3
*1 amine or outer side, *2 acyl side, *3 side chain or, on linkers, in order; H or OH if unused. Where a SMILES comes first, the peptide text is derived from it. [ ]: non-standard residue; d: D form. ξ: configuration not given here. ξTHIQ1CO(6-Me) = Cc1ccc2c(c1)CCNC2C(=O)O; X3 = O=C([C@@H]1Cc2ccccc2N1[*:1])[*:2]; Aad = N[C@@H](CCCC(=O)O)C(=O)O; Tle = CC(C)(C)[C@H](N)C(=O)O
Below, each of the compounds is paired with its reported Ki (Casp3) / Ki (Casp2) value.
ENDPOINT: Ki (Casp3) / Ki (Casp2)

# COMPOUND, ENDPOINT RESULT
measured = [
    ("CC(=O)N1c2ccccc2C[C@H]1C(=O)N[C@@H](CCCC(=O)O)C(=O)N[C@H](C(=O)N1CCc2cc(C)ccc2[C@H]1C(=O)N[C@H](C=O)CC(=O)O)C(C)(C)C", 47),
    ("Cc1ccc2c(c1F)CCN(C(=O)[C@@H](NC(=O)[C@H](CCCC(=O)O)NC(=O)[C@@H]1Cc3ccccc3N1)C(C)C)C2C(=O)N[C@H](C=O)CC(=O)O (some centres unmarked)", 525),
    ("Cc1ccc2c(c1F)CCN(C(=O)[C@@H](NC(=O)[C@H](CCCC(=O)O)NC(=O)[C@H]1Nc3ccc(F)cc3C1(C)C)C(C)C)C2C(=O)N[C@H](C=O)CC(=O)O (some centres unmarked)", 575),
    ("CC(=O)N1c2ccccc2C[C@H]1C(=O)N[C@@H](CCCC(=O)O)C(=O)N[C@H](C(=O)N1CCc2cc(C)ccc2[C@H]1C(=O)N[C@H](C=O)CC(=O)O)C(C)C", 263),
    ("Cc1ccc2c(c1)CCN(C(=O)[C@@H](NC(=O)[C@H](CCCC(=O)O)NC(=O)[C@@H]1Cc3ccccc3N1)C(C)(C)C)C2C(=O)N[C@H](C=O)CC(=O)O (stereo partly drawn) [Compound 11] (H-[X3][Aad][Tle][ξTHIQ1CO(6-Me)]D-aldehyde)", 24),
]
